# System: Pseudomonas aeruginosa
# Procedure text: Antibiofilm activity against Pseudomonas aeruginosa PAO1 assessed as inhibition of biofilm dispersion
# Format: functional, organism-based
Reported property: IC50 (µM)

Structure smiles string: CCCCCCCCCCCCNC(=O)CCCc1c[nH]c(N)n1
Assay target: Pseudomonas aeruginosa
Reported property: IC50
Experimental result: 2.8

Structure smiles string: CCCCCCCCNC(=O)CCCc1c[nH]c(N)n1
Assay target: Pseudomonas aeruginosa
Reported property: IC50
Experimental result: 18.4

Structure smiles string: CCCCCCNC(=O)CCCc1c[nH]c(N)n1
Assay target: Pseudomonas aeruginosa
Reported property: IC50
Experimental result: 32.7

Structure smiles string: CCCCCCCCCCNC(=O)CCCc1c[nH]c(N)n1
Assay target: Pseudomonas aeruginosa
Reported property: IC50
Experimental result: 8

====

Below, each of the compounds is paired with its reported pEC50 value.
# Tested on: Staphylococcus aureus
# Procedure text: Antibiofilm activity against methicillin-resistant Staphylococcus aureus
# Format: functional, organism-based
# Measurement setup: Staphylococcus aureus
pEC50: −log10 of the molar value.

Structure smiles string: CCCCOc1ccc(/C=C(\C)Cn2cc(CCCCCc3c[nH]c(N)n3)nn2)cc1
pEC50: 5.01 to 5.35
//
Structure smiles string: C/C(=C\c1cccc2ccccc12)Cn1cc(CCCCCc2c[nH]c(N)n2)nn1
pEC50: 5.01 to 5.35
//
Structure smiles string: CCCCOc1ccc(Br)c(/C=C(\C)Cn2cc(CCCCCc3c[nH]c(N)n3)nn2)c1F
pEC50: 5.01 to 5.35

====

# Tested on: Staphylococcus aureus
# Procedure text: Antibiofilm activity against Staphylococcus aureus ATCC 6538
# Type: functional, organism-based

Structure smiles string: CCOC(=O)/C(=N/Nc1c(F)cccc1F)C(=O)c1cc(C)nn1CC
IC50 (nM): 900

====

# Tested on: Staphylococcus aureus
# Procedure text: Antibiofilm activity against methicillin-resistant Staphylococcus aureus
# Type: functional, organism-based
# Measurement setup: Staphylococcus aureus
Below, each of the compounds is paired with its reported IC50 value.

Structure smiles string: CCCCCc1ccc(C(=O)NCCn2cc(CCCCCc3c[nH]c(N)n3)nn2)cc1
IC50: 15200 to 34000 nM
--
Structure smiles string: COC(=O)Oc1c(Br)cc(Br)c2nc3ccccc3nc12
IC50: 1400 to 2900 nM
--
Structure smiles string: O=C(Oc1c(Br)cc(Br)c2nc3ccccc3nc12)c1ccco1
IC50: 1400 to 2900 nM
--
Structure smiles string: CCCCCc1cccc(C(=O)NCCNC(=O)CCCCCc2cnc(N)[nH]2)c1
IC50: 6.5 µg/mL
